Could you please report measured pIC50 for the items listed next?
Molecular target: NSD2 [1-1365] (Homo sapiens (Human))
Assay: LC-MS/MS-based NSD2 enzymatic assay (SAH production)
Assay type: biochemical
Conditions: NSD2 biochemical activity, class symbols; read-out: NSD2 IC50
pIC50: −log10 of the molar value.

For this molecule ( Nc1ncnc2c1ncn2Cc1cc(-c2ccc(F)cc2)ncc1N1CCC[C@](N)(COC(F)F)C1 [Example 44] ), measured pIC50 is 6.00 to 8.00

For this molecule ( COc1ccc(-c2cc(Cn3cnc4c(N)ncnc43)c(N3CCC[C@](N)(C(=O)OC(C)C)C3)cn2)cc1F [Example 81] ), measured pIC50 is 8.00 to 9.00

For this molecule ( CC1(C(=O)C2(N)CCCN(c3cnc(-c4ccc(F)c(F)c4)cc3Cn3cnc4c(N)ncnc43)C2)COC1 (stereo not shown) [Example 112] ), measured pIC50 is < 6.00

For this molecule ( COc1ccc(-c2cc(Cn3cnc4c(N)ncnc43)c(N3CCC[C@@](C)(N)C3)cn2)cc1F [Example 20] ), measured pIC50 is 6.00 to 8.00

For this molecule ( CO[C@H](C)[C@@]1(N)CCCN(c2cnc(-c3ccc(F)c(F)c3)cc2Cn2cnc3c(N)ncnc32)C1 [Example 97] ), measured pIC50 is 6.00 to 8.00

For this molecule ( Nc1ncnc2c1ncn2Cc1cc(-c2ccc(F)cc2C(F)F)ncc1N1CCC[C@](N)([C@@H](O)C(F)F)C1 [Example 158] ), measured pIC50 is 8.00 to 9.00

For this molecule ( Nc1ncnc2c1ncn2Cc1cc(-c2ccc(F)cc2F)ncc1N1CCC[C@](N)([C@@H](O)C(F)F)C1 [Example 147] ), measured pIC50 is 6.00 to 8.00

* * *

Biological target: NSD2 [1-1365] (Homo sapiens (Human), UniProt O96028)
Sequence (O96028 whole entry): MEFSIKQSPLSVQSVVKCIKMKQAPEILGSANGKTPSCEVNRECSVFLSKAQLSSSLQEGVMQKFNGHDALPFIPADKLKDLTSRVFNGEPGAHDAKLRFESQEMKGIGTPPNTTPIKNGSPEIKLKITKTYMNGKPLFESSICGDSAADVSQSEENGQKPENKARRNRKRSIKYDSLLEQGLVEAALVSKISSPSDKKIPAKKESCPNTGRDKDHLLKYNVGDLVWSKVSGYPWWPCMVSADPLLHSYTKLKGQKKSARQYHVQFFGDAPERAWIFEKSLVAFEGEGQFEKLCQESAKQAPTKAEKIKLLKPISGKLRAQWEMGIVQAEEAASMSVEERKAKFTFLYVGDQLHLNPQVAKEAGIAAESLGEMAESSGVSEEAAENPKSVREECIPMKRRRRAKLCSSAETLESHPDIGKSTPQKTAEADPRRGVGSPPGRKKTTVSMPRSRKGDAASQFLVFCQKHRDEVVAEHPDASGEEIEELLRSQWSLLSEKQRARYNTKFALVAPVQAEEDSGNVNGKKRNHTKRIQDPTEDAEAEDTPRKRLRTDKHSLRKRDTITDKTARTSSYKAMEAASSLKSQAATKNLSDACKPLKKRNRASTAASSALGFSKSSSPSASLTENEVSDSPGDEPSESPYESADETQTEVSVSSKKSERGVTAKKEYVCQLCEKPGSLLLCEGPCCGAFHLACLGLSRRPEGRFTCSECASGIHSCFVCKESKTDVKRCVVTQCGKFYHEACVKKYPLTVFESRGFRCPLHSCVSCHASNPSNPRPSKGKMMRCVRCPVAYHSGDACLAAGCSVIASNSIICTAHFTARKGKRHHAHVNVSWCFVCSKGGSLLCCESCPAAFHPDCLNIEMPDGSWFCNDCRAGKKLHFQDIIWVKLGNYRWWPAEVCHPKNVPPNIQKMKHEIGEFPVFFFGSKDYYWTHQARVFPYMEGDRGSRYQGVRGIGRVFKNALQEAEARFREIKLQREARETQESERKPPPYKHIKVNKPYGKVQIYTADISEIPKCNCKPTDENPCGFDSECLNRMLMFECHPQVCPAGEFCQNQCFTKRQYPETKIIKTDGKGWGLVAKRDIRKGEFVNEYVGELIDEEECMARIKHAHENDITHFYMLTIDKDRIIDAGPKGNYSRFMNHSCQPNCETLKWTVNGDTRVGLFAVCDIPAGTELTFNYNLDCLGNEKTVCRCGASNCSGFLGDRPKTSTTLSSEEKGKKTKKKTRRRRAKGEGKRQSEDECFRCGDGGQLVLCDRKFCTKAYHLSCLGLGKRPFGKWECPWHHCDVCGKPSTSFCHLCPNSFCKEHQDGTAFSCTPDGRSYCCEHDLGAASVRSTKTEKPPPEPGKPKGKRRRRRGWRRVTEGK
Assay: LC-MS/MS-based NSD2 enzymatic assay (SAH production)
Format: biochemical
Settings: read-out: NSD2 IC50
Could you please report measured IC50 for the items listed next?

For this molecule ( Nc1ncnc2c1ncn2Cc1cc(-c2ccc3ccnn3c2)ncc1N1CCCC(N)(c2cccc(Cl)n2)C1 (stereo not drawn) ), measured IC50 is 10 to 1000 nM

For this molecule ( Nc1ncnc2c1ncn2Cc1cc(-c2ccc(F)c(F)c2)ncc1N1CCCC(N)(c2ccc(Cl)nn2)C1 (stereo not drawn) ), measured IC50 is 1 to 10 nM

For this molecule ( `Cc1cc([C@@]2(N)CCCN(c3cnc(-c4ccc(F)c(F)c4)cc3Cn3cnc4c(N)ncnc43)C2)no1` ), measured IC50 is 1 to 10 nM

* * *

Target: NSD2 [1-1365] (Homo sapiens (Human))
Assay: LC-MS/MS-based NSD2 enzymatic assay (SAH production)
Type: biochemical
Details: NSD2 biochemical activity, class symbols; read-out: NSD2 IC50
pIC50: −log10 of the molar value.
Readout type: pIC50

For this compound ( `CN(C)C(=O)C[C@@]1(N)CCCN(c2cnc(-c3cccc(F)c3)cc2Cn2cnc3c(N)ncnc32)C1` ), measured pIC50 is 6.00 to 8.00

For this compound ( `Nc1ncnc2c1ncn2Cc1cc(-c2ccc(F)c(F)c2)ncc1N1CCC[C@](N)([C@H](O)C(F)F)C1` ), measured pIC50 is 6.00 to 8.00

For this compound ( `COc1ccc(-c2cc(Cn3cnc4c(N)ncnc43)c(N3CCC[C@@H](N)C3)cn2)cc1` ), measured pIC50 is 6.00 to 8.00

For this compound ( `Nc1ncnc2c1ncn2Cc1cc(-c2cc(F)c(C(F)F)cc2F)ncc1N1CCC[C@](N)([C@@H](O)C(F)F)C1` ), measured pIC50 is 6.00 to 8.00

For this compound ( Nc1ncnc2c1ncn2Cc1cc(-c2ccc(F)c(F)c2)ncc1N1CCCC(N)(C(=O)C2CCOCC2)C1 (stereo not shown) ), measured pIC50 is 6.00 to 8.00

For this compound ( `Nc1nccc2c1ncn2Cc1cc(-c2ccc(F)c(F)c2)ncc1N1CCC[C@](N)(Cc2ccccn2)C1` ), measured pIC50 is 8.00 to 9.00

For this compound ( `COc1ccc(-c2cc(Cn3cnc4c(N)ncnc43)c(N3CC[C@@H](F)[C@@H](N)C3)cn2)c(F)c1` ), measured pIC50 is 6.00 to 8.00

For this compound ( `COc1ccc(-c2cc(Cn3cnc4c(N)ncnc43)c(N3CCC[C@@H](N)C3)cn2)cc1F` ), measured pIC50 is 6.00 to 8.00

For this compound ( `Nc1ncnc2c1ncn2Cc1cc(-c2ccc(F)cc2)ncc1N1CCC[C@](N)(CC(F)F)C1` ), measured pIC50 is 6.00 to 8.00

For this compound ( `COc1cc(F)c(-c2cc(Cn3cnc4c(N)ncnc43)c(N3CCC[C@](N)([C@@H](O)C(F)F)C3)cn2)cc1F` ), measured pIC50 is 8.00 to 9.00

For this compound ( `Nc1ncnc2c1ncn2Cc1cc(-c2ccc(OC(F)F)c(F)c2)ncc1N1CCC[C@](N)([C@H](O)C(F)F)C1` ), measured pIC50 is 8.00 to 9.00

For this compound ( `COc1ccc(-c2cc(Cn3cnc4c(N)ncnc43)c(N3CCC[C@](N)([C@H](O)C(F)F)C3)cn2)cc1Cl` ), measured pIC50 is 8.00 to 9.00

For this compound ( Nc1ncnc2c1ncn2Cc1cc(-c2ccc(F)c(F)c2)ncc1N1CCCC(N)(C(=O)C2CCCC2)C1 (stereo not shown) ), measured pIC50 is 8.00 to 9.00

For this compound ( `COC[C@@]1(N)CCCN(c2cnc(-c3cccc(Cl)c3)cc2Cn2cnc3c(N)ncnc32)C1` ), measured pIC50 is 8.00 to 9.00

For this compound ( `Nc1ncnc2c1ncn2Cc1cc(-c2ccc(OC(F)F)cc2F)ncc1N1CCC[C@](N)([C@@H](O)C(F)F)C1` ), measured pIC50 is 6.00 to 8.00

For this compound ( `Nc1ncnc2c1ncn2Cc1c(N2CCC[C@](N)([C@H](O)C(F)F)C2)cnc(-c2ccc(F)cc2F)c1F` ), measured pIC50 is 6.00 to 8.00

For this compound ( `COc1ccc(-c2cc(Cn3cnc4c(N)ncnc43)c(N3CCC[C@](N)([C@@H](O)C(F)F)C3)cn2)cc1Cl` ), measured pIC50 is 8.00 to 9.00

For this compound ( `Nc1ncnc2c1ncn2Cc1cc(-c2cc(F)c(F)cc2F)ncc1N1CCC[C@](N)([C@@H](O)C(F)F)C1` ), measured pIC50 is 8.00 to 9.00

For this compound ( CO/N=C(\C)C1(N)CCCN(c2cnc(-c3ccc(OC)c(F)c3)cc2Cn2cnc3c(N)ncnc32)C1 (stereo not shown) ), measured pIC50 is 6.00 to 8.00

For this compound ( `Nc1ncnc2c1ncn2Cc1cc(-c2ccc(Cl)cc2F)ncc1N1CCC[C@](N)([C@@H](O)C(F)F)C1` ), measured pIC50 is 6.00 to 8.00

For this compound ( `Nc1ncnc2c1ncn2Cc1cc(-c2ccc(F)c(F)c2)ncc1N1CCC[C@](N)(C(=O)N2CCCC2)C1` ), measured pIC50 is 6.00 to 8.00

For this compound ( `Nc1ncnc2c1ncn2Cc1cc(-c2ccc(F)c(F)c2)ncc1N1CCC[C@](N)(COC2CCC2)C1` ), measured pIC50 is 8.00 to 9.00

For this compound ( `Cn1ncc2cc(-c3cc(Cn4cnc5c(N)ncnc54)c(N4CCC[C@](N)([C@H](O)C(F)F)C4)cn3)c(F)cc21` ), measured pIC50 is 6.00 to 8.00

For this compound ( COc1c(F)cc(-c2cc(Cn3cnc4c(N)ncnc43)c(N3CCC[C@](N)(C(O)C(F)F)C3)cn2)cc1F (stereo in doubt) [Example 165] ), measured pIC50 is 8.00 to 9.00

For this compound ( `CC[C@@H](C)C(=O)[C@@]1(N)CCCN(c2cnc(-c3ccc(F)c(F)c3)cc2Cn2cnc3c(N)ncnc32)C1` ), measured pIC50 is 6.00 to 8.00

For this compound ( `Nc1ncnc2c1ncn2Cc1cc(-c2ccc(F)c(F)c2)ncc1N1CCC[C@](N)(COCC(F)(F)F)C1` ), measured pIC50 is 6.00 to 8.00

For this compound ( `Nc1ncnc2c1ncn2Cc1cc(-c2ccc(F)cc2F)ncc1N1CCC[C@](N)([C@H](O)C(F)F)C1` ), measured pIC50 is 6.00 to 8.00

For this compound ( `COC(=O)[C@@]1(N)CCCN(c2cnc(-c3cccc(F)c3)cc2Cn2cnc3c(N)ncnc32)C1` ), measured pIC50 is 8.00 to 9.00

Attribution: patent US11420970B1
